system: Hep 3B2; assay: Cytotoxicity against human Hep3B cells assessed as reduction in cell viability incubated for 24 hrs under normaxic condition by MTT assay; assay type: cell-based

molecule	IC50
CCOP(=O)(OCC)C(NC(=O)COC(=O)[C@]1(C)CC[C@]2(C)CC[C@]3(C)C4=CC=C5C(=CC(=O)C(O)=C5C)[C@]4(C)CC[C@@]3(C)[C@@H]2C1)c1ccccc1 (stereo not given in full)	1.17 µM
CC1=C(O)C(=O)C=C2C1=CC=C1[C@@]2(C)CC[C@@]2(C)[C@@H]3C[C@](C)(C(=O)OCCOc4ccc5ccc(=O)oc5c4)CC[C@]3(C)CC[C@]12C	2.45 µM
CC1=C(O)C(=O)C=C2C1=CC=C1[C@@]2(C)CC[C@@]2(C)[C@@H]3C[C@](C)(C(=O)OCC(=O)NCc4cn(-c5ccccc5)nn4)CC[C@]3(C)CC[C@]12C	1.16 µM
CC1=C(O)C(=O)C=C2C1=CC=C1[C@@]2(C)CC[C@@]2(C)[C@@H]3C[C@](C)(C(=O)OCC(=O)NCc4cn(-c5ccc(Cl)cc5)nn4)CC[C@]3(C)CC[C@]12C	21.9 µM
CC1=C(O)C(=O)C=C2C1=CC=C1[C@@]2(C)CC[C@@]2(C)[C@@H]3C[C@](C)(C(=O)OCCOc4cccc5ncccc45)CC[C@]3(C)CC[C@]12C	14.4 µM

###

system: Hep 3B2; assay: Cytotoxicity against human Hep3B cells assessed as reduction in cell viability incubated for 24 hrs under normaxic condition by MTT assay; assay type: cell-based
pIC50: −log10 of the molar value.

compound	tgt	pIC50
CC1=C(O)C(=O)C=C2C1=CC=C1[C@@]2(C)CC[C@@]2(C)[C@@H]3C[C@](C)(C(=O)O)CC[C@]3(C)CC[C@]12C [CELASTROL]	Hep 3B2	6.12
CC1=C(O)C(=O)C=C2C1=CC=C1[C@@]2(C)CC[C@@]2(C)[C@@H]3C[C@](C)(C(=O)OCC(=O)Nc4ccc5ncccc5c4)CC[C@]3(C)CC[C@]12C	Hep 3B2	5.54
CC1=C(O)C(=O)C=C2C1=CC=C1[C@@]2(C)CC[C@@]2(C)[C@@H]3C[C@](C)(C(=O)OCCOc4cc(=O)oc5ccccc45)CC[C@]3(C)CC[C@]12C	Hep 3B2	3.87
CCOP(=O)(OCC)C(NC(=O)COC(=O)[C@]1(C)CC[C@]2(C)CC[C@]3(C)C4=CC=C5C(=CC(=O)C(O)=C5C)[C@]4(C)CC[C@@]3(C)[C@@H]2C1)c1ccc(OC)cc1 (stereo not given in full)	Hep 3B2	5.83
CC1=C(O)C(=O)C=C2C1=CC=C1[C@@]2(C)CC[C@@]2(C)[C@@H]3C[C@](C)(C(=O)OCC(=O)NCc4cn(-c5ccc(C)cc5)nn4)CC[C@]3(C)CC[C@]12C	Hep 3B2	5.57
CC1=C(O)C(=O)C=C2C1=CC=C1[C@@]2(C)CC[C@@]2(C)[C@@H]3C[C@](C)(C(=O)OCC(=O)Nc4ccnc5ccccc45)CC[C@]3(C)CC[C@]12C	Hep 3B2	5.40
COc1ccc(-n2cc(CNC(=O)COC(=O)[C@]3(C)CC[C@]4(C)CC[C@]5(C)C6=CC=C7C(=CC(=O)C(O)=C7C)[C@]6(C)CC[C@@]5(C)[C@@H]4C3)nn2)cc1	Hep 3B2	5.04
CC1=C(O)C(=O)C=C2C1=CC=C1[C@@]2(C)CC[C@@]2(C)[C@@H]3C[C@](C)(C(=O)OCC(=O)Nc4cccc5cccnc45)CC[C@]3(C)CC[C@]12C	Hep 3B2	5.77
CC1=C(O)C(=O)C=C2C1=CC=C1[C@@]2(C)CC[C@@]2(C)[C@@H]3C[C@](C)(C(=O)OCC(=O)Nc4cc(C)on4)CC[C@]3(C)CC[C@]12C	Hep 3B2	5.51
CCOP(=O)(OCC)C(NC(=O)COC(=O)[C@]1(C)CC[C@]2(C)CC[C@]3(C)C4=CC=C5C(=CC(=O)C(O)=C5C)[C@]4(C)CC[C@@]3(C)[C@@H]2C1)c1ccc(F)cc1 (stereo not given in full)	Hep 3B2	5.63
CCOP(=O)(OCC)C(NC(=O)COC(=O)[C@]1(C)CC[C@]2(C)CC[C@]3(C)C4=CC=C5C(=CC(=O)C(O)=C5C)[C@]4(C)CC[C@@]3(C)[C@@H]2C1)c1ccc(C)cc1 (stereo not given in full)	Hep 3B2	5.34
CC1=C(O)C(=O)C=C2C1=CC=C1[C@@]2(C)CC[C@@]2(C)[C@@H]3C[C@](C)(C(=O)OCC(=O)NCc4cn(-c5ccc(Cl)c(Cl)c5)nn4)CC[C@]3(C)CC[C@]12C	Hep 3B2	5.61
CC1=C(O)C(=O)C=C2C1=CC=C1[C@@]2(C)CC[C@@]2(C)[C@@H]3C[C@](C)(C(=O)OCC(=O)Nc4ccc(F)nc4)CC[C@]3(C)CC[C@]12C	Hep 3B2	5.38
CC1=C(O)C(=O)C=C2C1=CC=C1[C@@]2(C)CC[C@@]2(C)[C@@H]3C[C@](C)(C(=O)OCC(=O)Nc4ccc(F)cn4)CC[C@]3(C)CC[C@]12C	Hep 3B2	5.90
CC1=C(O)C(=O)C=C2C1=CC=C1[C@@]2(C)CC[C@@]2(C)[C@@H]3C[C@](C)(C(=O)OCC(=O)Nc4cccc5ncccc45)CC[C@]3(C)CC[C@]12C	Hep 3B2	5.95
CC1=C(O)C(=O)C=C2C1=CC=C1[C@@]2(C)CC[C@@]2(C)[C@@H]3C[C@](C)(C(=O)OCCOc4ccc5cccnc5c4)CC[C@]3(C)CC[C@]12C	Hep 3B2	5.28
CC1=C(O)C(=O)C=C2C1=CC=C1[C@@]2(C)CC[C@@]2(C)[C@@H]3C[C@](C)(C(=O)OCC(=O)Nc4ccncc4)CC[C@]3(C)CC[C@]12C	Hep 3B2	3.63
CC1=C(O)C(=O)C=C2C1=CC=C1[C@@]2(C)CC[C@@]2(C)[C@@H]3C[C@](C)(C(=O)OCC(=O)Nc4cnc5ccccc5c4)CC[C@]3(C)CC[C@]12C	Hep 3B2	5.98
CC1=C(O)C(=O)C=C2C1=CC=C1[C@@]2(C)CC[C@@]2(C)[C@@H]3C[C@](C)(C(=O)OCCOc4cnc5ccccc5c4)CC[C@]3(C)CC[C@]12C	Hep 3B2	4.77
CC1=C(O)C(=O)C=C2C1=CC=C1[C@@]2(C)CC[C@@]2(C)[C@@H]3C[C@](C)(C(=O)OCCOc4cc(C)oc(=O)c4)CC[C@]3(C)CC[C@]12C	Hep 3B2	5.94
